These data points were gathered from patent US8546611B2.

# System: patients with cardiac insufficiency
# SETUP CONDITIONS: 100 mg twice per day with standard therapy; after 90 days
Overview of reported patients of functional class I, day 90 across a group of compounds:
MEASURED ENDPOINT: patients of functional class I, day 90

[
  {
    "COMPOUND": "O=C(O)CCC(=O)O [Example 5, succinic acid]",
    "MEASURED ENDPOINT": "patients of functional class I, day 90",
    "DATA VALUE": 14
  },
  {
    "COMPOUND": "O=C(O)CCC(=O)O [Example 4, succinic acid]",
    "MEASURED ENDPOINT": "patients of functional class I, day 90",
    "DATA VALUE": 13
  },
  {
    "COMPOUND": "O=C(O)CCC(=O)O [Example 1, succinic acid, reference compound]",
    "MEASURED ENDPOINT": "patients of functional class I, day 90",
    "DATA VALUE": 9
  },
  {
    "COMPOUND": "O=C(O)CCC(=O)O [Example 2, succinic acid, reference compound]",
    "MEASURED ENDPOINT": "patients of functional class I, day 90",
    "DATA VALUE": 8
  },
  {
    "COMPOUND": "O=C(O)CCC(=O)O [Example 3, succinic acid, reference compound]",
    "MEASURED ENDPOINT": "patients of functional class I, day 90",
    "DATA VALUE": 10
  },
  {
    "COMPOUND": "O=C(O)CCC(=O)O [Example 9, succinic acid]",
    "MEASURED ENDPOINT": "patients of functional class I, day 90",
    "DATA VALUE": 14
  },
  {
    "COMPOUND": "O=C(O)CCC(=O)O [Example 7, succinic acid]",
    "MEASURED ENDPOINT": "patients of functional class I, day 90",
    "DATA VALUE": 15
  },
  {
    "COMPOUND": "O=C(O)CCC(=O)O [Example 6, succinic acid]",
    "MEASURED ENDPOINT": "patients of functional class I, day 90",
    "DATA VALUE": 14
  },
  {
    "COMPOUND": "O=C(O)CCC(=O)O [“Natural” SA, succinic acid, reference compound]",
    "MEASURED ENDPOINT": "patients of functional class I, day 90",
    "DATA VALUE": 14
  },
  {
    "COMPOUND": "O=C(O)CCC(=O)O [Example 10, succinic acid]",
    "MEASURED ENDPOINT": "patients of functional class I, day 90",
    "DATA VALUE": 14
  },
  {
    "COMPOUND": "O=C(O)CCC(=O)O [Example 8, succinic acid]",
    "MEASURED ENDPOINT": "patients of functional class I, day 90",
    "DATA VALUE": 14
  }
]

* * *

# Test system: erythroid cells isolated from the bone marrow of laboratory mice males
# SETUP CONDITIONS: feed with succinic acid 20 mg/kg body wt., not irradiated, norm 5.0±1.0
Overview of reported Number of micronuclei per 2000 cells (genotoxicity) across a group of compounds:
MEASURED ENDPOINT: Number of micronuclei per 2000 cells (genotoxicity)

[
  {
    "COMPOUND": "O=C(O)CCC(=O)O [Example 10, succinic acid]",
    "SYSTEM UNDER TEST": "erythroid cells isolated from the bone marrow of laboratory mice males",
    "DATA VALUE": 5.0
  },
  {
    "COMPOUND": "O=C(O)CCC(=O)O [Example 1, succinic acid, reference compound]",
    "SYSTEM UNDER TEST": "erythroid cells isolated from the bone marrow of laboratory mice males",
    "DATA VALUE": 5.5
  },
  {
    "COMPOUND": "O=C(O)CCC(=O)O [Example 5, succinic acid]",
    "SYSTEM UNDER TEST": "erythroid cells isolated from the bone marrow of laboratory mice males",
    "DATA VALUE": 5.0
  },
  {
    "COMPOUND": "O=C(O)CCC(=O)O [Example 6, succinic acid]",
    "SYSTEM UNDER TEST": "erythroid cells isolated from the bone marrow of laboratory mice males",
    "DATA VALUE": 4.5
  },
  {
    "COMPOUND": "O=C(O)CCC(=O)O [Example 9, succinic acid]",
    "SYSTEM UNDER TEST": "erythroid cells isolated from the bone marrow of laboratory mice males",
    "DATA VALUE": 5.0
  },
  {
    "COMPOUND": "O=C(O)CCC(=O)O [Example 4, succinic acid]",
    "SYSTEM UNDER TEST": "erythroid cells isolated from the bone marrow of laboratory mice males",
    "DATA VALUE": 5.5
  },
  {
    "COMPOUND": "O=C(O)CCC(=O)O [Example 2, succinic acid, reference compound]",
    "SYSTEM UNDER TEST": "erythroid cells isolated from the bone marrow of laboratory mice males",
    "DATA VALUE": 5.5
  },
  {
    "COMPOUND": "O=C(O)CCC(=O)O [Example 8, succinic acid]",
    "SYSTEM UNDER TEST": "erythroid cells isolated from the bone marrow of laboratory mice males",
    "DATA VALUE": 5.0
  },
  {
    "COMPOUND": "O=C(O)CCC(=O)O [Example 7, succinic acid]",
    "SYSTEM UNDER TEST": "erythroid cells isolated from the bone marrow of laboratory mice males",
    "DATA VALUE": 5.0
  },
  {
    "COMPOUND": "O=C(O)CCC(=O)O [Example 3, succinic acid, reference compound]",
    "SYSTEM UNDER TEST": "erythroid cells isolated from the bone marrow of laboratory mice males",
    "DATA VALUE": 5.0
  }
]

* * *

# System: white rat females
# SETUP CONDITIONS: female, in vivo, 5000 mg/kg, 14 days

[
  {
    "MOLECULE": "O=C(O)CCC(=O)O [“Natural” SA, succinic acid, reference compound]",
    "SYSTEM UNDER TEST": "white rat females",
    "Total died": 3
  },
  {
    "MOLECULE": "O=C(O)CCC(=O)O [Example 10, succinic acid]",
    "SYSTEM UNDER TEST": "white rat females",
    "Total died": 3
  },
  {
    "MOLECULE": "O=C(O)CCC(=O)O [Example 1, succinic acid, reference compound]",
    "SYSTEM UNDER TEST": "white rat females",
    "Total died": 0
  },
  {
    "MOLECULE": "O=C(O)CCC(=O)O [Example 4, succinic acid]",
    "SYSTEM UNDER TEST": "white rat females",
    "Total died": 3
  },
  {
    "MOLECULE": "O=C(O)CCC(=O)O [Example 5, succinic acid]",
    "SYSTEM UNDER TEST": "white rat females",
    "Total died": 3
  }
]

* * *

# System: white rat females
# SETUP CONDITIONS: female, in vivo, 5000 mg/kg, 14 day
Overview of reported died, 14 day across a group of compounds:

[
  {
    "COMPOUND": "O=C(O)CCC(=O)O [Example 8, succinic acid]",
    "SYSTEM UNDER TEST": "white rat females",
    "died, 14 day": 1
  },
  {
    "COMPOUND": "O=C(O)CCC(=O)O [Example 7, succinic acid]",
    "SYSTEM UNDER TEST": "white rat females",
    "died, 14 day": 2
  },
  {
    "COMPOUND": "O=C(O)CCC(=O)O [Example 9, succinic acid]",
    "SYSTEM UNDER TEST": "white rat females",
    "died, 14 day": 1
  },
  {
    "COMPOUND": "O=C(O)CCC(=O)O [Example 4, succinic acid]",
    "SYSTEM UNDER TEST": "white rat females",
    "died, 14 day": 1
  },
  {
    "COMPOUND": "O=C(O)CCC(=O)O [“Natural” SA, succinic acid, reference compound]",
    "SYSTEM UNDER TEST": "white rat females",
    "died, 14 day": 2
  },
  {
    "COMPOUND": "O=C(O)CCC(=O)O [Example 5, succinic acid]",
    "SYSTEM UNDER TEST": "white rat females",
    "died, 14 day": 1
  }
]
